# Tested on: KM12 colon
# Assay summary: NCI tumour cell line growth inhibition, 48 h
Where a SMILES comes first, the peptide text is derived from it. The star is where a group is joined. Boc = CC(C)(C)OC(=O)*
Recorded TGI, one value per entry.
Endpoint label: TGI

1. COc1cccc(-c2cc3c4c(nc5ccccc53)C(=O)c3cccnc3-c4n2)c1 : 3.75 µM
2. OC1CSc2nc3ccccc3n2C1 (centres undefined) : > 100 µM
3. CC1=C(C(=O)N[C@@H](CC(C)C)C(=O)O)N2C(=O)[C@@H](NC(=O)C(N)c3ccccc3)[C@H]2SC1 (some centres undefined) : > 100 µM
4. CC(C)Oc1c(-c2ccc(F)cc2)c(O)c2c3c1oc(=O)n3C=CC2C (centres undefined) : 34.3 µM
5. Cc1ccc(C(=O)N/N=C(\N=Nc2ccc(C(=O)O)cc2)c2ccc(N(CCC#N)CCC#N)cc2C)cc1 : > 100 µM
6. COC1=C(C)C(=O)c2c(cc3c(c2O)C(C)(CCC=C(C)C)C(C)O3)C1=O (centres undefined) : > 100 µM
7. O=C(O)c1nc(-c2ccc(Cl)c(Cl)c2)nc2ccc(Cl)cc12 : > 100 µM
8. CCOC(=O)/C=C(/C)Nc1nc2c(c(C(=O)OC)c1C#N)CCCC2 : > 100 µM
9. COC(=O)[C@H](Cc1ccc(O)cc1)NC(=O)[C@H](Cc1ccc(O)cc1)NC(=O)OC(C)(C)C (Boc-Tyr-Tyr-OMe) : > 100 µM
